# Target of assay: human mGluR2 (Homo sapiens (Human), UniProt Q14416)
# Sequence (Q14416 19-872): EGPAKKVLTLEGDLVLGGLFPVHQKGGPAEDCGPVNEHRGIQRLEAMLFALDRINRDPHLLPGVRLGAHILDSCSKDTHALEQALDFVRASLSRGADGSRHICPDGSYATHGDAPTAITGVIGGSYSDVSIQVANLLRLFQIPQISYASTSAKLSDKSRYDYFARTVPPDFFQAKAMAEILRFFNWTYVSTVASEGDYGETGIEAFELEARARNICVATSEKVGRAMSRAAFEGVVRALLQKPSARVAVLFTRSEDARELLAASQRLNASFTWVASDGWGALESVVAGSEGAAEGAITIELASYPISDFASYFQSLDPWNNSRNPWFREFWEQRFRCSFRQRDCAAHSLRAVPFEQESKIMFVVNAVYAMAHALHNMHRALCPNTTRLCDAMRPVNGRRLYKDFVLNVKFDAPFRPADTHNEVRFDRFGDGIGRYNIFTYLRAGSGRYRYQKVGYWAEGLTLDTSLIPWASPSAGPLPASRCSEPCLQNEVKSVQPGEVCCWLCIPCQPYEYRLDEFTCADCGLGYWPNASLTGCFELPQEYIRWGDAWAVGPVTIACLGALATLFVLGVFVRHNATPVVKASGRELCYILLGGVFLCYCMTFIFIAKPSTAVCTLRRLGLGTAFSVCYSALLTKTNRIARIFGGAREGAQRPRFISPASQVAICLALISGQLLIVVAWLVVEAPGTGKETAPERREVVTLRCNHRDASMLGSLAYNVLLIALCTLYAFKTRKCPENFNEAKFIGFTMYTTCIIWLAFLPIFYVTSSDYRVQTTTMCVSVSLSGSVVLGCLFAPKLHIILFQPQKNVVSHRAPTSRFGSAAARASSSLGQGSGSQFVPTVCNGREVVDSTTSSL
# Assay procedure: [35S]GTPγS binding assay (Affinity to mGluR2)
# Assay type: biochemical
# Measurement conditions: cell membrane fraction of HEK293 cells stably expressing human mGluR2; glutamic acid 10 μM
Readout name: IC50 (nM)

| Mol | IC50 / nM |
| --- | --- |
| Cc1cc(-c2nc(-c3ccc(C(F)(F)F)c(Cl)c3)n3c2CCO[C@H](C)C3)cc(C)n1 | 15.7 |
| Cc1cc(-c2nc(-c3ccc(OC(F)(F)F)cc3)n3c2CCOCC3)ccn1 | 90 |
| Cc1cc(-c2nc(-c3ccc(Cl)c(C)c3)n3c2CCO[C@H](CF)C3)cc(C)n1 | 24.8 |
| Cc1cc(-c2nc(-c3ccc(C(F)F)c(Cl)c3)n3c2CCOCC3)cc(C)n1 | 18.7 |

I. COc1cc(-c2nc(-c3cc(C)nc(C)c3)c3n2C[C@@H](CF)OCC3)ccc1C
II. Cc1cc(-c2nc(-c3ccc(OC(F)(F)F)c(C#N)c3)n3c2CCOCC3)cc(C)n1
III. COc1ccc(-c2nc(-c3ccnc(C)c3)c3n2C[C@@H](C)OCC3)cc1F
IV. COc1cc(-c2nc(-c3cc(C)nc(C(F)F)c3)c3n2C[C@@H](CF)OCC3)ccc1C
Input: Ranking field: IC50; order: falling. # output: labels, in the requested order
Output: III, II, I, IV

* * *

# Target of assay: human mGluR2 (Homo sapiens (Human), UniProt Q14416)
# Assay procedure: [35S]GTPγS binding assay (Affinity to mGluR2)
# Assay type: biochemical
# Measurement conditions: cell membrane fraction of HEK293 cells stably expressing human mGluR2; glutamic acid 10 μM
pIC50: −log10 of the molar value.
Readout name: pIC50

| Mol | Reported result |
| --- | --- |
| Cc1cc(-c2nc(-c3ccc(Cl)c(C(F)F)c3)n3c2CCO[C@H](C)C3)cc(C)n1 | 7.59 |

A. COc1cc(-c2nc(-c3cc(C)nc(C)c3)c3n2C[C@@H](C)OCC3)ccc1F
B. COc1cc(-c2nc(-c3cc(C)nc(CF)c3)c3n2C[C@@H](C)OCC3)ccc1C
C. COc1cc(-c2nc(-c3cc(C)nc(C)c3)c3n2C[C@@H](C)OCC3)ccc1C(F)(F)F
Input: List the 3 entries from lowest pIC50 to highest pIC50 value. Please write the labels in the order that was asked for.
Output: A, B, C

* * *

# Target of assay: human mGluR2 (Homo sapiens (Human))
# Assay procedure: [35S]GTPγS binding assay (Affinity to mGluR2)
# Format: biochemical
# Measurement conditions: cell membrane fraction of HEK293 cells stably expressing human mGluR2; glutamic acid 10 μM
Readout name: IC50 (nM)

| Mol | Reported result |
| --- | --- |
| COc1cc(-c2nc(-c3ccnc(CO)c3)c3n2C[C@@H](C)OCC3)ccc1Cl | 242 |
| Cc1cc(-c2nc(-c3ccc(C(F)(F)F)c(F)c3)n3c2CCO[C@H](C)C3)ccn1 | 47.5 |
| COc1cc(-c2nc(-c3cc(C)nc(C)c3)c3n2C[C@@H](C)OCC3)ccc1C(F)F | 9.1 |
| Cc1cc(-c2nc(-c3ccc(OC(F)(F)F)c(C)c3)n3c2CCOCC3)ccn1 | 10.9 |
| COc1cc(-c2nc(-c3cc(C)nc(C)c3)c3n2CCOCC3)ccc1C(F)F | 40.9 |

I. COc1cc(-c2nc(-c3cc(C)nc(C(F)F)c3)c3n2C[C@@H](CF)OCC3)ccc1C(F)(F)F
II. COc1cc(-c2nc(-c3cc(C)nc(C)c3)c3n2CCOCC3)ccc1Cl
III. COc1cc(-c2nc(-c3ccnc(C)c3)c3n2C[C@@H](C)OCC3)ccc1C(F)(F)F
Input: Please list the entries, largest IC50 first. I would appreciate it if you listed the labels in the requested order.
Output: II, III, I
(II: 22.3 nM, III: 13.2 nM, I: 7.9 nM)

* * *

# Target of assay: human mGluR2 (Homo sapiens (Human))
# Assay procedure: [35S]GTPγS binding assay (Affinity to mGluR2)
# Format: biochemical
# Measurement conditions: cell membrane fraction of HEK293 cells stably expressing human mGluR2; glutamic acid 10 μM
pIC50: −log10 of the molar value.
Readout name: pIC50

As a guide, the following entries are already answered.
| Compound | Reported result |
| --- | --- |
| COc1cc(-c2nc(-c3ccnc(CF)c3)c3n2C[C@@H](C)OCC3)ccc1Cl [Example 12] | 7.55 |
| Cc1cc(-c2nc(-c3ccc(Cl)c(C)c3)n3c2CCO[C@H](C)C3)ccn1 [Example 54] | 7.71 |
| CC[C@@H]1Cn2c(-c3ccc(Cl)c(OC)c3)nc(-c3ccnc(C)c3)c2CCO1 [Example 78] | 8.42 |
| COc1cc(-c2nc(-c3ccnc(C)c3)c3n2CCOCC3)ccc1C(F)(F)F [Example 123] | 7.44 |
| Cc1cc(-c2nc(-c3ccc(Cl)c(Cl)c3)n3c2CCOCC3)cc(C)n1 [Example 103] | 7.59 |
| COc1cc(-c2nc(-c3cc(C)nc(C)c3)c3n2CCOCC3)ccc1OC(F)F [Example 127] | 7.92 |

P. Cc1cc(-c2nc(-c3ccc(OC(F)F)c(C)c3)n3c2CCO[C@H](C)C3)ccn1 [Example 15]
Q. Cc1cc(-c2nc(-c3ccc(F)c(OCC4(C)COC4)c3)n3c2CCO[C@H](C)C3)cc(C)n1 [Example 99]
Input: Exercise: compare P and Q ; which one has the greater pIC50? Kindly state the label of the option you pick.
Output: P

* * *

# Target of assay: human mGluR2 (Homo sapiens (Human))
# Assay procedure: [35S]GTPγS binding assay (Affinity to mGluR2)
# Type: biochemical
# Measurement conditions: cell membrane fraction of HEK293 cells stably expressing human mGluR2; glutamic acid 10 μM
pIC50: −log10 of the molar value.
Readout name: pIC50

| Mol | pIC50 |
| --- | --- |
| Cc1cc(-c2nc(-c3ccc(OC(F)(F)F)cc3)n3c2CCO[C@H](C)C3)ccn1 | 7.85 |

A. Cc1cc(-c2nc(-c3ccc(Cl)c(C)c3)n3c2CCOCC3)cc(C)n1
B. Cc1cc(-c2nc(-c3ccc(F)c(OCC4CCC4)c3)n3c2CCO[C@H](C)C3)ccn1
Input: // compare: A vs B , metric pIC50, want the smaller Returns: label corresponding to the selected item.
Output: A
(A: 7.19, B: 7.60)

* * *

# Target of assay: human mGluR2 (Homo sapiens (Human), UniProt Q14416)
# Assay procedure: [35S]GTPγS binding assay (Affinity to mGluR2)
# Format: biochemical
# Measurement conditions: cell membrane fraction of HEK293 cells stably expressing human mGluR2; glutamic acid 10 μM; inhibition of specific [35S]GTPγS binding
# Procedure: (Preparation of Cell Membrane Fraction of HEK293 Cells Stably Expressing Human Metabotropic Glutamate Receptor 2 (mGluR2)) HEK293 cells stably expressing human mGluR2 and human glutamate transporter SLC1A3 were cultured in a Dulbecco's modified Eagle's medium with 10% fetal bovine serum (50 units/mL of penicillin, 50 μg/mL of streptomycin, 60 μg/mL of geneticin, 400 μg/mL of hygromycin B and 2 mM of glutamine) at 37° C. under 5% CO2. […]
Readout name: IC50 (nM)

| Mol | Readout name | Reported result |
| --- | --- | --- |
| CCOc1ccc(-c2nc(-c3cc(C)nc(C)c3)c3n2C[C@@H](CF)OCC3)cc1C | IC50 | 1.7 |

1. COc1ccc(-c2nc(-c3cc(C)nc(C)c3)c3n2C[C@@H](CF)OCC3)cc1OC(F)(F)F
2. Cc1cc(-c2nc(-c3ccc(OC(F)F)c(C)c3)n3c2CCO[C@H](C)C3)cc(CO)n1
Input: Of 1 versus 2 , which is the one with smaller reported IC50? Respond using the label that marks the chosen record.
Output: 1
(1: 18.5 nM, 2: 29.4 nM)

* * *

# Target of assay: human mGluR2 (Homo sapiens (Human))
# Assay procedure: [35S]GTPγS binding assay (Affinity to mGluR2)
# Type: biochemical
# Measurement conditions: cell membrane fraction of HEK293 cells stably expressing human mGluR2; glutamic acid 10 μM; inhibition of specific [35S]GTPγS binding
Readout name: IC50 (nM)

| Mol | Readout name | Reported result |
| --- | --- | --- |
| Cc1cc(-c2nc(-c3ccc(C(F)(F)F)cc3)n3c2CCO[C@H](C)C3)cc(C)n1 | IC50 | 20.2 |
| Cc1cc(-c2nc(-c3ccc(C)c(OCC4CC4)c3)n3c2CCO[C@H](C)C3)ccn1 | IC50 | 50.4 |
| Cc1cc(-c2nc(-c3ccc(F)c(C(F)(F)F)c3)n3c2CCO[C@H](C)C3)cc(C)n1 | IC50 | 13.6 |

I. Cc1cc(-c2nc(-c3ccc(OC(F)(F)F)c(C#N)c3)n3c2CCO[C@H](C)C3)cc(C)n1
II. Cc1cc(-c2nc(-c3ccc(OC(F)F)c(Cl)c3)n3c2CCOCC3)cc(C)n1
III. Cc1cc(-c2nc(-c3ccc(OC(F)(F)F)c(F)c3)n3c2CCO[C@H](C)C3)cc(C)n1
IV. COc1cc(-c2nc(-c3cc(C)nc(CO)c3)c3n2C[C@@H](CF)OCC3)ccc1OC(F)F
Input: Sort entries by IC50 from minimum to maximum value. # the answer lists labels in the order requested
Output: I, III, II, IV

P. Cc1cc(-c2nc(-c3ccc(C)c(OCC4CCOCC4)c3)n3c2CCO[C@H](C)C3)cc(C)n1
Q. COc1cc(-c2nc(-c3cc(C)nc(CF)c3)c3n2C[C@@H](C)OCC3)ccc1C(F)(F)F
R. Cc1cc(-c2nc(-c3ccc(OC(F)(F)F)c(F)c3)n3c2CCO[C@H](CF)C3)cc(CO)n1
Input: Arrange the 3 molecules from largest to smallest IC50. Arrange the labels as the request states and list them.
Output: P, R, Q
(P: 82 nM, R: 43.1 nM, Q: 4.4 nM)

a. Cc1cc(-c2nc(-c3ccc(OC(F)F)c(CO)c3)n3c2CCO[C@H](C)C3)ccn1
b. COc1ccc(-c2nc(-c3cc(C)nc(C)c3)c3n2C[C@@H](CF)OCC3)cc1C
Input: Lab notebook, comparison: a versus b , higher IC50 goes to which? Kindly state the label of the option you pick.
Output: a

Source listed as patent US9458176B2.
